Sourced from PubChem BioAssay AID1918956

Below: a set of entries, each annotated with reported viability, T/C.
- Tested on: OVCAR-5 complex spheroids, viability
- Assay Comment: Anticancer human tumor OVCAR-5 cell line growth inhibition;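 also: spheroids exposed to agents for seven days; 100% = DMSO vehicle control wells viability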
- Experimental Conditions: second compound 3.16 µM; first compound 3 µM; hits give low values
Quantity: viability, T/C

>  <Compound>
CCN(c1cc(-c2ccc(CN3CCOCC3)cc2)cc(C(=O)NCc2c(C)cc(C)[nH]c2=O)c1C)C1CCOCC1 + NC1CC1c1ccc(-c2cccc(O)c2)cc1

>  <Recorded Measurement>
92.9%

$$$$
>  <Compound>
COc1cc(C2c3cc4c(cc3C(OC3OC5COC(C)OC5C(O)C3O)C3COC(=O)C23)OCO4)cc(OC)c1O (stereo not given) + NC1CCC(NC2CC2c2ccccc2)CC1

>  <Recorded Measurement>
45.4%

$$$$
>  <Compound>
NS(=O)(=O)OCC1CC(n2ccc3c(NC4CCc5ccccc54)ncnc32)CC1O (stereo not given) + NC1CC1c1ccc(-c2cccc(O)c2)cc1

>  <Recorded Measurement>
4.11%

$$$$
>  <Compound>
COc1cc(C2c3cc4c(cc3C(OC3OC5COC(C)OC5C(O)C3O)C3COC(=O)C23)OCO4)cc(OC)c1O (stereo not given) + NC1CC1c1ccc(-c2cccc(O)c2)cc1

>  <Recorded Measurement>
34.6%

$$$$
>  <Compound>
O=C(C=Cc1cccc(S(=O)(=O)Nc2ccccc2)c1)NO + NC1CCC(NC2CC2c2ccccc2)CC1

>  <Recorded Measurement>
3.02%

$$$$
>  <Compound>
O=C(C=Cc1cccc(S(=O)(=O)Nc2ccccc2)c1)NO + NC1CC1c1ccc(-c2cccc(O)c2)cc1

>  <Recorded Measurement>
2.06%

$$$$
>  <Compound>
CCN(c1cc(-c2ccc(CN3CCOCC3)cc2)cc(C(=O)NCc2c(C)cc(C)[nH]c2=O)c1C)C1CCOCC1 + NC1CCC(NC2CC2c2ccccc2)CC1

>  <Recorded Measurement>
94.4%

$$$$
>  <Compound>
Nc1ccccc1NC(=O)c1ccc(CNC(=O)OCc2cccnc2)cc1 + NC1CC1c1ccc(-c2cccc(O)c2)cc1

>  <Recorded Measurement>
7.56%

$$$$
>  <Compound>
Nc1ccccc1NC(=O)c1ccc(CNC(=O)OCc2cccnc2)cc1 + NC1CCC(NC2CC2c2ccccc2)CC1

>  <Recorded Measurement>
10.8%

$$$$
>  <Compound>
NS(=O)(=O)OCC1CC(n2ccc3c(NC4CCc5ccccc54)ncnc32)CC1O (stereo not given) + NC1CCC(NC2CC2c2ccccc2)CC1

>  <Recorded Measurement>
9.81%

$$$$
